system: CYP3A4/5; assay: in vitro; conditions: human, microsomes, pH 7.4, Percent of Control Activity, CYP 3A4/5 (mdz), 93.5 µM, 30-Minute Preincubation
measurement_label: activity at 93.5 µM (%)
Please state the figure in %; there is no need to write the unit.

(Q) Which activity at 93.5 µM value is on record for "COc1cccc2[nH]c(C(=O)N[C@@H](CC(C)C)C(=O)N[C@@H](C[C@@H]3CCNC3=O)C(=O)CO)cc12" ?
(A) 64.9

====

test: Cytotoxicity in MRC-5 cells; details: human, MRC-5 cells, with CP-100356 (efflux inhibitor) 0.5 µM
measurement_label: CC50 at 5 days

(Q) Which CC50 at 5 days value is on record for COc1cccc2[nH]c(C(=O)N[C@@H](CC(C)C)C(=O)N[C@@H](C[C@@H]3CCNC3=O)C(=O)COP(=O)(O)O)cc12 [PF-07304814] ?
(A) > 100 µM

====

system: CYP3A4/5; test: Reversible CYP inhibition in human liver microsomes; conditions: human, human liver microsomes, pH 7.4, probe testosterone (tst), Percent of Control Activity, CYP 3A4/5 (tst), 0.1 µM, 30-Minute Preincubation
measurement_label: activity at 30 min, 0.1 µM (%)
Please state the figure in %; there is no need to write the unit.

(Q) Which activity at 30 min, 0.1 µM value is on record for COc1cccc2[nH]c(C(=O)N[C@@H](CC(C)C)C(=O)N[C@@H](C[C@@H]3CCNC3=O)C(=O)CO)cc12 [PF-00835231] ?
(A) 92.1

====

target: MHV-CoV 3CL^pro (Murine coronavirus); assay type: biochemical
Sequence (P0C6X9 3334-3635): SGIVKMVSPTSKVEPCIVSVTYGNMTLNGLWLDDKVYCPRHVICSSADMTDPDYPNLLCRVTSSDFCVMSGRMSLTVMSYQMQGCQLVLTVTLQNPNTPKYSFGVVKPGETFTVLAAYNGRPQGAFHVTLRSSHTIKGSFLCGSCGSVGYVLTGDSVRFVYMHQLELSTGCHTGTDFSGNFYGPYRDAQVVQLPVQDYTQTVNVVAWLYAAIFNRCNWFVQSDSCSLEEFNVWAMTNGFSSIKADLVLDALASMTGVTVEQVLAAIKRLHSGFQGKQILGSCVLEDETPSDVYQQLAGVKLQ
measurement_label: Ki
Reply with a number, then the unit it belongs to.

(Q) Query the reported Ki for MHV-CoV 3CL^pro (Murine coronavirus); item: "COc1cccc2[nH]c(C(=O)N[C@@H](CC(C)C)C(=O)N[C@@H](C[C@@H]3CCNC3=O)C(=O)CO)cc12"
(A) 1.2 nM

====

biological target: CYP2C8 (Homo sapiens); test: Reversible CYP inhibition in human liver microsomes; settings: human, microsomes, pH 7.4, Percent of Control Activity, CYP 2C8, 2.09 µM, 30-Minute Preincubation
measurement_label: activity at 2.09 µM (%)
Please state the figure in %; there is no need to write the unit.

(Q) Which activity at 2.09 µM value is on record for "COc1cccc2[nH]c(C(=O)N[C@@H](CC(C)C)C(=O)N[C@@H](C[C@@H]3CCNC3=O)C(=O)CO)cc12" ?
(A) 92.8

====

Biological target: CYP2C8 (Homo sapiens, UniProt P10632)
Sequence (P10632 1-490): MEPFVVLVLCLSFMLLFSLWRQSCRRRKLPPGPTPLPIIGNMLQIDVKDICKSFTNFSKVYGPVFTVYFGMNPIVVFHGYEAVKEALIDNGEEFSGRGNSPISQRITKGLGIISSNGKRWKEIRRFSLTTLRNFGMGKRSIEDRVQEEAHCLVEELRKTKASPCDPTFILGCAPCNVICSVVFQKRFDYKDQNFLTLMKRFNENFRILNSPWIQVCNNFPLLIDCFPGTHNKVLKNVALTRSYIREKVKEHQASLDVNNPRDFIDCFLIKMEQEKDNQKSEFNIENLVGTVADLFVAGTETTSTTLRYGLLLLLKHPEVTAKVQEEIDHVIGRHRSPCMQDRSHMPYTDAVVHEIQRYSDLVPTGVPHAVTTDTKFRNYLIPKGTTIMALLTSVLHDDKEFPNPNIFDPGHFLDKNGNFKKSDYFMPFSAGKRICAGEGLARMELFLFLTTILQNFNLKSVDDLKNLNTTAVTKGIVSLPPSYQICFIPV
Assay: Reversible CYP inhibition in human liver microsomes
Details: human, microsomes, pH 7.4, Percent of Control Activity, CYP 2C8, 0.398 µM, 30-Minute Preincubation
measurement_label: activity at 0.398 µM

(Q) Which activity at 0.398 µM value is on record for COc1cccc2[nH]c(C(=O)N[C@@H](CC(C)C)C(=O)N[C@@H](C[C@@H]3CCNC3=O)C(=O)COP(=O)(O)O)cc12 [PF-07304814] ?
(A) 92.1%
